- Read-out: Cytochrome P450 4A22 (Homo sapiens) (UniProt Q5TCH4)
- Measurement notes: LTEA_HepaRG_CYP4A22: Life Technologies and Expression Analysis (LTEA) Assay for Cytochrome P450 4A22 (CYP4A22) using HepaRG (AID 2283495)
- Experimental parameters: mRNA level, 48 h; actives raise or lower the signal
Calls of active or inactive are those of the source. How the source made its calls: active means hit-call score of the fitted dose curve at least 0.9, where 1 is the maximum; inactive means score below 0.9.
Could you please pick one outcome from this set? active, inactive

Take a look at these entries with their results.
Prompt: Per the assay record, what outcome was assigned to `CCCN(CCOc1c(Cl)cc(Cl)cc1Cl)C(=O)n1ccnc1` ?
Completion: active

Prompt: Lookup CCC(C)Nc1c([N+](=O)[O-])cc(C(C)(C)C)cc1[N+](=O)[O-] (configuration not stated)
Completion: active

Prompt: Try `CNC(=O)CSP(=S)(OC)OC` next.
Completion: inactive

More entries:
Prompt: How did this test come out for `CCOCN(C(=O)CCl)c1c(C)cccc1CC` ?
Completion: active

Prompt: // same read-out, input: `CNC(=O)/C=C(\C)OP(=O)(OC)OC`
Completion: inactive

Prompt: Follow-up entry: `CC(C)OC(=O)Nc1cccc(Cl)c1`
Completion: inactive

Prompt: Continue with `O=C(O)CCCOc1ccc(Cl)cc1Cl`
Completion: inactive
